Source of measurements: paper PMC9911399

Molecular target: T1, RBFOX1 RRM (Homo sapiens, UniProt Q9NWB1 109-208)
T1 sequence: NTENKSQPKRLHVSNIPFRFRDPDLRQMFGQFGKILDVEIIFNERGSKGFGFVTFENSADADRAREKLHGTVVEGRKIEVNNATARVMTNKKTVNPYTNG
Assay: EMSA; HiTS-Eq, 1 nM pool, 10 min; buffer printed only for the single-RNA assays: 10 mM Tris pH 7.5, 150 mM NaCl, 3.4 mM EDTA, 0.001% NP-40, 30 C
Settings: tags: His6 N-terminal (pET28a); label: 5' 32P
The full ranking holds about 16,000 sequences; the median of “ka relative to ugcaugu” is about 0.0091, and the highest 2% start at about 0.032. The full list was thinned out, with the highest values kept by preference.
Listed binders paired with reported binding signal

Before answering, review these 10 worked examples.
[[record]]
binder = "UGGGGGA (DNA:RNA) RNA: GGGAGACCGGAAUUCAGAUUGUCCUGGGGGAUUAAAUCCCGUCGUAGCCACCA DNA 1: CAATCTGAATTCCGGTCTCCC DNA 2: TGGTGGCTACGACGGGATT"
recorded_measurement = "0.0155 KA relative to UGCAUGU"

[[record]]
binder = "GCAAACC (DNA:RNA) RNA: GGGAGACCGGAAUUCAGAUUGUCCGCAAACCUUAAAUCCCGUCGUAGCCACCA DNA 1: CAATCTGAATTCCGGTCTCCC DNA 2: TGGTGGCTACGACGGGATT"
recorded_measurement = "0.00398 KA relative to UGCAUGU"

[[record]]
binder = "GAACCCA (DNA:RNA) RNA: GGGAGACCGGAAUUCAGAUUGUCCGAACCCAUUAAAUCCCGUCGUAGCCACCA DNA 1: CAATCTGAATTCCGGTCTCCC DNA 2: TGGTGGCTACGACGGGATT"
recorded_measurement = "0.00229 KA relative to UGCAUGU"

[[record]]
binder = "UGGGAUG (DNA:RNA) RNA: GGGAGACCGGAAUUCAGAUUGUCCUGGGAUGUUAAAUCCCGUCGUAGCCACCA DNA 1: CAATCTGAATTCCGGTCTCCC DNA 2: TGGTGGCTACGACGGGATT"
recorded_measurement = "0.0414 KA relative to UGCAUGU"

[[record]]
binder = "GGACCUA (DNA:RNA) RNA: GGGAGACCGGAAUUCAGAUUGUCCGGACCUAUUAAAUCCCGUCGUAGCCACCA DNA 1: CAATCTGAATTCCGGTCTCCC DNA 2: TGGTGGCTACGACGGGATT"
recorded_measurement = "0.0035 KA relative to UGCAUGU"

[[record]]
binder = "CGCAUGG (DNA:RNA) RNA: GGGAGACCGGAAUUCAGAUUGUCCCGCAUGGUUAAAUCCCGUCGUAGCCACCA DNA 1: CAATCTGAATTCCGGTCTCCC DNA 2: TGGTGGCTACGACGGGATT"
recorded_measurement = "0.582 KA relative to UGCAUGU"

[[record]]
binder = "AUGACCA (DNA:RNA) RNA: GGGAGACCGGAAUUCAGAUUGUCCAUGACCAUUAAAUCCCGUCGUAGCCACCA DNA 1: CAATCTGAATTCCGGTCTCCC DNA 2: TGGTGGCTACGACGGGATT"
recorded_measurement = "0.00337 KA relative to UGCAUGU"

[[record]]
binder = "CUGUAGC (DNA:RNA) RNA: GGGAGACCGGAAUUCAGAUUGUCCCUGUAGCUUAAAUCCCGUCGUAGCCACCA DNA 1: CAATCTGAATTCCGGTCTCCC DNA 2: TGGTGGCTACGACGGGATT"
recorded_measurement = "0.0127 KA relative to UGCAUGU"

[[record]]
binder = "AGGGCCC (DNA:RNA) RNA: GGGAGACCGGAAUUCAGAUUGUCCAGGGCCCUUAAAUCCCGUCGUAGCCACCA DNA 1: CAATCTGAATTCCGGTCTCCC DNA 2: TGGTGGCTACGACGGGATT"
recorded_measurement = "0.0184 KA relative to UGCAUGU"

[[record]]
binder = "UGGAUGU (DNA:RNA) RNA: GGGAGACCGGAAUUCAGAUUGUCCUGGAUGUUUAAAUCCCGUCGUAGCCACCA DNA 1: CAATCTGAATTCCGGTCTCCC DNA 2: TGGTGGCTACGACGGGATT"
recorded_measurement = "0.0494 KA relative to UGCAUGU"


Looking for the measured binding signal of CUCUACU (DNA:RNA) RNA: GGGAGACCGGAAUUCAGAUUGUCCCUCUACUUUAAAUCCCGUCGUAGCCACCA DNA 1: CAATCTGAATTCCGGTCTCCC DNA 2: TGGTGGCTACGACGGGATT , can you help? 0.00629 KA relative to UGCAUGU

Looking for the measured binding signal of GCCAUGG (DNA:RNA) RNA: GGGAGACCGGAAUUCAGAUUGUCCGCCAUGGUUAAAUCCCGUCGUAGCCACCA DNA 1: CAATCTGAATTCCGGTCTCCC DNA 2: TGGTGGCTACGACGGGATT , can you help? 0.0159 KA relative to UGCAUGU

Looking for the measured binding signal of UGCGCGA (DNA:RNA) RNA: GGGAGACCGGAAUUCAGAUUGUCCUGCGCGAUUAAAUCCCGUCGUAGCCACCA DNA 1: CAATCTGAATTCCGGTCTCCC DNA 2: TGGTGGCTACGACGGGATT , can you help? 0.0211 KA relative to UGCAUGU

Looking for the measured binding signal of GAUCUCU (DNA:RNA) RNA: GGGAGACCGGAAUUCAGAUUGUCCGAUCUCUUUAAAUCCCGUCGUAGCCACCA DNA 1: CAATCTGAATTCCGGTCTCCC DNA 2: TGGTGGCTACGACGGGATT , can you help? 0.0194 KA relative to UGCAUGU

Looking for the measured binding signal of CGGAUGU (DNA:RNA) RNA: GGGAGACCGGAAUUCAGAUUGUCCCGGAUGUUUAAAUCCCGUCGUAGCCACCA DNA 1: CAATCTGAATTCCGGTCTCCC DNA 2: TGGTGGCTACGACGGGATT , can you help? 0.0261 KA relative to UGCAUGU

Looking for the measured binding signal of UGCGAUG (DNA:RNA) RNA: GGGAGACCGGAAUUCAGAUUGUCCUGCGAUGUUAAAUCCCGUCGUAGCCACCA DNA 1: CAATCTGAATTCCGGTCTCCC DNA 2: TGGTGGCTACGACGGGATT , can you help? 0.0369 KA relative to UGCAUGU

Looking for the measured binding signal of CGGCUCA (DNA:RNA) RNA: GGGAGACCGGAAUUCAGAUUGUCCCGGCUCAUUAAAUCCCGUCGUAGCCACCA DNA 1: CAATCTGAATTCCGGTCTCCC DNA 2: TGGTGGCTACGACGGGATT , can you help? 0.00697 KA relative to UGCAUGU
